Listing of recorded Increase in PappAtoB by entry.
Tested on: Caco-2 monolayer
Assay: Caco-2 monolayer transmembrane transport, apical to basolateral
Type: in vitro ADME, human
Settings: RD vs no substrate
QUANTITY NAME: Increase in PappAtoB

MOLECULE	SUBJECT OF TEST	ASSAY VALUE
C[C@@H]1O[C@@H](O[C@H]2[C@H](Oc3cc(O)c4c(c3)O[C@H](c3ccc(O)cc3)CC4=O)O[C@H](CO)[C@@H](O)[C@@H]2O)[C@H](O)[C@H](O)[C@H]1O [Naringin]	Caco-2 monolayer	0.34
O=c1c(O)c(-c2ccc(O)c(O)c2)oc2cc(O)cc(O)c12 [Quercetin]	Caco-2 monolayer	−0.29
O=C1c2c(O)cc(O)cc2O[C@H](c2cc(O)c(O)c(O)c2)[C@H]1O [Dihydromyricetin]	Caco-2 monolayer	−0.05
O=C1c2c(O)cc(O)cc2OC(c2ccc(O)c(O)c2)C1O (centres unmarked) [Taxifolin]	Caco-2 monolayer	−0.37
COc1cc(-c2oc3cc(O)cc(O)c3c(=O)c2O)ccc1O [Isorhamnetin]	Caco-2 monolayer	−0.29
